System: Plasmodium berghei
Experiment: Screen against P. berghei liver stage (PbLuc), transformed with Luciferase, at 10uM
Type: functional, HepG2
Settings: tested at 10 uM
Among all 69,000 compounds or so, about 8,600 (12%) showed an effect of 50% or more. The sample holds strong results, similar compounds and a random draw of the others, so the mix is not that of the screen.
Please mark TRUE if the recorded INHIBITION is equal to or greater than 40%, and FALSE if it falls below.

Answered examples (5):
{"molecule": "CN(CC(=O)NC(N)=O)CC1(c2ccc(Br)cc2)CC1", "group": "FALSE"}
{"molecule": "Oc1nc(N2CCOCC2)nc2c1CCN(Cc1ccc(F)cc1)CC2", "group": "FALSE"}
{"molecule": "CCc1nc(C)ncc1C(=O)N1CCOC(c2nc(C)n[nH]2)C1 (stereo unspecified)", "group": "FALSE"}
{"molecule": "CNc1cc(C2CCCN2C(=O)CCc2cnn(C)c2C)ccn1 (stereo unspecified)", "group": "FALSE"}
{"molecule": "CCc1nnsc1C(=O)N1CCOC(c2nc(C(C)C)n[nH]2)C1 (stereo unspecified)", "group": "FALSE"}

Okay, next one:
[in] Test whether the molecule CC(C)c1n[nH]c(C2CN(C(=O)c3csnn3)CCO2)n1 (stereo unspecified) records INHIBITION of 40% or higher.
[out] TRUE
